Cited source: patent US9440982B2

Molecular target: CYP3A4 (Homo sapiens, UniProt P08684)
Construct: pre-incubated with human liver microsomes and NADPH; from tissue; host or cells: human liver microsomes
Sequence (P08684 whole entry): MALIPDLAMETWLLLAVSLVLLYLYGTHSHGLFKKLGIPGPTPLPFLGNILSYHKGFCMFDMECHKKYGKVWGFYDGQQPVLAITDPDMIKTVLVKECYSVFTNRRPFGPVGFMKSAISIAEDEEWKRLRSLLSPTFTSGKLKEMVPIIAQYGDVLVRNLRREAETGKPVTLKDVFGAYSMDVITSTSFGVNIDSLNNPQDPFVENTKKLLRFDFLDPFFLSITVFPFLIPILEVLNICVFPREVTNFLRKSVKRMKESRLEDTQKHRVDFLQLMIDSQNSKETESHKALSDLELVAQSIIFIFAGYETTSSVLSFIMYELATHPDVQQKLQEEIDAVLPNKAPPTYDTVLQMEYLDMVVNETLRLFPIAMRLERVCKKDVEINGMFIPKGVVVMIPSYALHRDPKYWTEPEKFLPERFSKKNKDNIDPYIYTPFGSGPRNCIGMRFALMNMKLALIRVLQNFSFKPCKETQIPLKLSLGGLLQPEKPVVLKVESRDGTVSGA
Assay: Cytochrome P450 inhibition assay (midazolam hydroxylation)
Format: in vitro ADME
Settings: human, human liver microsomes, probe midazolam (hydroxylation to 1′-hydroxymidazolam), 10 μM test compound, midazolam at approximately its Km
ASSAY_METRIC: inhibition at 10 µM (%)

{"COMPOUND_STRING": "C[C@@H]1CCCN(C(=O)c2cc(Cl)ccc2-n2nccn2)[C@@H]1CNc1ccc(C(F)(F)F)nn1", "TEST_RESULT": 76}
{"COMPOUND_STRING": "Cc1ccc(-n2ncc(C)n2)c(C(=O)N2CCC[C@@H](C)[C@H]2CNc2nc3cc(Cl)ccc3o2)c1", "TEST_RESULT": 75}
{"COMPOUND_STRING": "C[C@@H]1CCCN(C(=O)c2c(F)ccc(F)c2-n2nccn2)[C@@H]1CNc1ccc(C(F)(F)F)cn1", "TEST_RESULT": 62}
{"COMPOUND_STRING": "Cc1cc(F)c(-c2ncccn2)c(C(=O)N2CCC[C@@H](C)[C@H]2CNc2ncc(C(F)(F)F)cn2)c1", "TEST_RESULT": 48}
{"COMPOUND_STRING": "C[C@@H]1CCCN(C(=O)c2ccccc2-n2nccn2)[C@@H]1CNc1nc2ccccc2o1", "TEST_RESULT": 75}

A. Cc1ccc(-n2nccn2)c(C(=O)N2CCC[C@@H](C)[C@H]2CNc2cc(C)nc3nc(C)nn23)c1
B. Cc1nc(C(=O)N2CCC[C@@H](C)[C@H]2CNc2ccc(C(F)(F)F)cn2)c(-c2ccc(F)cc2)s1
Asked: Which has the higher inhibition at 10 µM, A or B ? Let me know the label of the one you choose.
Given back: A
(A: 19%, B: 9%)

----------
Molecular target: OX1 (Homo sapiens, UniProt O43613)
Construct: expressed in transfected cells; host or cells: CHO (CHO-OX1, kept under selection antibiotic)
Sequence (O43613 whole entry): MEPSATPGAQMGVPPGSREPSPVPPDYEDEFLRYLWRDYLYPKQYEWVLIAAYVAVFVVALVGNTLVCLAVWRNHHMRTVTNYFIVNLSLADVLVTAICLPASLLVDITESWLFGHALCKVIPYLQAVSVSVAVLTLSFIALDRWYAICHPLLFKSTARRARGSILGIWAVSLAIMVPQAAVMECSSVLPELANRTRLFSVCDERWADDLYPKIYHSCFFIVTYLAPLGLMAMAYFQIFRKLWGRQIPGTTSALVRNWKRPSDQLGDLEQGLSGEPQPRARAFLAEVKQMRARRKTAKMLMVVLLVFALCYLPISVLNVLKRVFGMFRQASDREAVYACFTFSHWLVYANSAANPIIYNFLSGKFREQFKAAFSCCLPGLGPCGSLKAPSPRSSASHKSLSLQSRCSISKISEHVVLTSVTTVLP
Assay: Orexin receptor cell-based functional assay, [Ca2+]i by FLIPR, CHO-OX1 cells
Details: CHO-OX1 cells, [Ca2+]i by FLIPR, antagonist dose-range 0.1 nM-10 μM, EC90 of OXA; read-out: OX1
ASSAY_METRIC: IC50 (nM)

Solved cases below.
{"COMPOUND": "Cc1ccc(-c2nccs2)c(C(=O)N2CCC[C@@H](C)[C@H]2CNc2ccc(C(F)(F)F)cn2)c1", "TEST_RESULT": 11}
{"COMPOUND": "Cc1ccc(-n2cnc(C)n2)c(C(=O)N2CCC[C@@H](C)[C@H]2CNc2nc3cc(Cl)ccc3o2)c1", "TEST_RESULT": 87}
{"COMPOUND": "Cc1ccc(-n2nccn2)c(C(=O)N2CCC[C@@H](C)[C@H]2CNc2ncc(C#N)cc2F)c1", "TEST_RESULT": 83}
{"COMPOUND": "Cc1ccc(-n2nccn2)c(C(=O)N2CCC[C@@H](C)[C@H]2CNc2ccc(F)cn2)c1", "TEST_RESULT": 150}

1. Cc1cc(F)c(-n2nccn2)c(C(=O)N2CCC[C@@H](C)[C@H]2CNc2ccc(C(F)(F)F)cn2)c1
2. Cc1nc(C(=O)N2CCC[C@H](C)[C@H]2CNc2ccc(C(F)(F)F)cn2)c(-c2ccc(F)cc2)s1 (racemic)
Asked: Lower value for measured IC50? Options: 1 , 2 Let me know the label of the one you choose.
Given back: 1
